- Test system: HEK-293T
- PROTOCOL DETAILS: Multiplex assay against HEK293T
- Format: toxicity, cell-based
- MEASUREMENT CONDITIONS: human, 48 h, 10 µM, compound concentration 10 uM
REPORTED PROPERTY: Population Membrane Permeable-Phenotype (%)

{"MOLECULE": "CN1CCN(c2ccc(Nc3c4ccccc4nc4ccccc34)cc2)CC1.Cl.Cl.O", "TEST VALUE": 0}
{"MOLECULE": "O=C(NCCN1CCC(n2c(=O)[nH]c3cc(Cl)ccc32)CC1)c1ccc(F)cc1 [HALOPEMIDE]", "TEST VALUE": 1}
{"MOLECULE": "COc1c(Nc2ccc(S(C)(=O)=O)nc2C)ncnc1OC1CCN(C(=O)OC(C)C)CC1", "TEST VALUE": 0}
{"MOLECULE": "CN1C[C@H](C(=O)N[C@]2(C)O[C@@]3(O)[C@@H]4CCCN4C(=O)[C@H](Cc4ccccc4)N3C2=O)C[C@@H]2c3cccc4[nH]cc(c34)C[C@H]21.CS(=O)(=O)O [DIHYDROERGOTAMINE MESYLATE]", "TEST VALUE": 0}
{"MOLECULE": "CC(=O)O[C@H]1C(=O)[C@@]2(C)[C@H]([C@H](OC(=O)c3ccccc3)[C@]3(O)C[C@H](OC(=O)[C@H](O)[C@@H](NC(=O)c4ccccc4)c4ccccc4)C(C)=C1C3(C)C)[C@]1(OC(C)=O)CO[C@@H]1C[C@@H]2O", "TEST VALUE": 0}
{"MOLECULE": "c1cc(OCCCN2CCCCC2)ccc1CN1CCCCC1", "TEST VALUE": 1}
{"MOLECULE": "CC(=O)Nc1cccc2c1c(Sc1ccc(Cl)cc1)c(C)n2CC(=O)O", "TEST VALUE": 0}

###

Here the recorded Population Hoechst High Intensity Objects (%) is given for each entry.
- System: Fibroblast
- PROTOCOL DETAILS: Multiplex assay against human fibroblast
- Type: toxicity, cell-based
- MEASUREMENT CONDITIONS: 12 h, 1 µM, compound concentration 1 uM
REPORTED PROPERTY: Population Hoechst High Intensity Objects (%)

{"STRUCTURE SMILES": "CC(=O)NCC(=O)N1[C@@H]2CC[C@H]1c1ccc(Nc3ncc(C(F)(F)F)c(NC4CCC4)n3)cc12", "TEST VALUE": 0}
{"STRUCTURE SMILES": "Cc1c(CC(=O)O)c2cccnc2n1Cc1ccc(S(C)(=O)=O)cc1C(F)(F)F", "TEST VALUE": 3}
{"STRUCTURE SMILES": "COCCNc1cc(NC(=O)N2CCCc3cc(CN4CCN(C)CC4=O)c(C=O)nc32)ncc1C#N", "TEST VALUE": 0}
{"STRUCTURE SMILES": "C=CC(=O)Nc1cc(Nc2nccc(-n3cc(CN(C)C)c(-c4ccccc4)n3)n2)c(OC)cc1N1CCOCC1", "TEST VALUE": 0}
{"STRUCTURE SMILES": "N#Cc1ccnc(Nc2cc(C3CCN(C4COC4)CC3)cc(N3CCC(F)(F)C3)n2)c1", "TEST VALUE": 0}

###

Here the recorded Population Mitochondria Different-Phenotype (%) is given for each entry.
- Test system: Fibroblast
- PROTOCOL DETAILS: Multiplex assay against human fibroblast
- Assay type: toxicity, cell-based
- MEASUREMENT CONDITIONS: 24 h, 10 µM, compound concentration 10 uM
REPORTED PROPERTY: Population Mitochondria Different-Phenotype (%)

{"STRUCTURE SMILES": "CCOc1c2c(c(OCC)c3ncccc13)CN(c1ccc(CS(=O)(=O)NC(=O)Cc3ccccc3OC)cc1C)C2=O", "SYSTEM NAME": "Fibroblast", "TEST VALUE": 2}
{"STRUCTURE SMILES": "CC(/C=C1\\SC(=S)N(CCCC(=O)Nc2ccc(C(=O)O)c(O)c2)C1=O)=C\\c1ccccc1", "SYSTEM NAME": "Fibroblast", "TEST VALUE": 4}
{"STRUCTURE SMILES": "CN1CCN(c2nc3cc(C(F)(F)F)ccc3n3cccc23)CC1.O=C(O)/C=C\\C(=O)O.O=C(O)/C=C\\C(=O)O", "SYSTEM NAME": "Fibroblast", "TEST VALUE": 32}
{"STRUCTURE SMILES": "CN1CCN(c2cc(-c3ccccc3)nc(N)n2)CC1", "SYSTEM NAME": "Fibroblast", "TEST VALUE": 6}

###

- System: HEK-293T
- PROTOCOL DETAILS: Multiplex assay against HEK293T
- Type: toxicity, cell-based
- MEASUREMENT CONDITIONS: human, 48 h, 10 µM, compound concentration 10 uM
Here the recorded Population Normal (%) is given for each entry.

{"MOLECULE": "Cc1cc(Nc2ncc(Cl)c(Nc3ccccc3S(=O)(=O)C(C)C)n2)c(OC(C)C)cc1C1CCNCC1", "SYSTEM NAME": "HEK-293T", "UNIT OF MEASUREMENT": "%", "Population Normal (%)": 100}
{"MOLECULE": "Cc1cc(C)c(NC(=O)C2CC3CCC2C3)c(C)c1 (centres undefined)", "SYSTEM NAME": "HEK-293T", "UNIT OF MEASUREMENT": "%", "Population Normal (%)": 100}
{"MOLECULE": "CC(=O)O[C@H]1C(=O)[C@@]2(C)[C@H]([C@H](OC(=O)c3ccccc3)[C@]3(O)C[C@H](OC(=O)[C@H](O)[C@@H](NC(=O)c4ccccc4)c4ccccc4)C(C)=C1C3(C)C)[C@]1(OC(C)=O)CO[C@@H]1C[C@@H]2O", "SYSTEM NAME": "HEK-293T", "UNIT OF MEASUREMENT": "%", "Population Normal (%)": 88}
{"MOLECULE": "C=CC(=O)Nc1cc(Nc2nccc(-n3cc(CN(C)C)c(-c4ccccc4)n3)n2)c(OC)cc1N1CCOCC1", "SYSTEM NAME": "HEK-293T", "UNIT OF MEASUREMENT": "%", "Population Normal (%)": 100}
{"MOLECULE": "CC(=O)NCC(=O)N1[C@@H]2CC[C@H]1c1ccc(Nc3ncc(C(F)(F)F)c(NC4CCC4)n3)cc12", "SYSTEM NAME": "HEK-293T", "UNIT OF MEASUREMENT": "%", "Population Normal (%)": 100}
{"MOLECULE": "CN1CCN(c2cc(-c3ccccc3)nc(N)n2)CC1", "SYSTEM NAME": "HEK-293T", "UNIT OF MEASUREMENT": "%", "Population Normal (%)": 96}
{"MOLECULE": "Cc1c(Cc2ccc3ccccc3n2)c2cc(F)ccc2n1CC(=O)O", "SYSTEM NAME": "HEK-293T", "UNIT OF MEASUREMENT": "%", "Population Normal (%)": 95}
{"MOLECULE": "CN(C)Cc1cccc(NC(=C2C(=O)Nc3cc(C(=O)N(C)C)ccc32)c2ccccc2)c1", "SYSTEM NAME": "HEK-293T", "UNIT OF MEASUREMENT": "%", "Population Normal (%)": 100}
{"MOLECULE": "COc1cccc2c1c(NS(=O)(=O)c1ccc(Cl)s1)nn2Cc1cccc(CNC(=O)C(C)(C)O)c1", "SYSTEM NAME": "HEK-293T", "UNIT OF MEASUREMENT": "%", "Population Normal (%)": 95}

###

- Tested on: U2OS
- PROTOCOL DETAILS: Multiplex assay against U2OS
- Type: toxicity, cell-based
- MEASUREMENT CONDITIONS: human, 48 h, 10 µM, compound concentration 10 uM
REPORTED PROPERTY: Population Mitotic Cells (%)

{"MOLECULE": "CN(C)C/C=C/C(=O)Nc1ccc(C(=O)N2CCCC(Nc3ncc(Cl)c(-c4c[nH]c5ccccc45)n3)C2)cc1 (centres undefined)", "SYSTEM NAME": "U2OS", "TEST VALUE": 0}
{"MOLECULE": "NCCc1cn(S(=O)(=O)c2c(Cl)nc3sccn23)c2ccccc12.O=C(O)C(=O)O", "SYSTEM NAME": "U2OS", "TEST VALUE": 7}
{"MOLECULE": "COc1cc(Nc2ncc3c(n2)-c2ccc(Cl)cc2C(c2c(F)cccc2OC)=NC3)ccc1C(=O)O [ALISERTIB]", "SYSTEM NAME": "U2OS", "TEST VALUE": 11}
{"MOLECULE": "Cc1sc2c(c1C)C(c1ccc(Cl)cc1)=N[C@@H](CC(=O)NCCCCCCCCNC(=O)COc1cccc3c1C(=O)N(C1CCC(=O)NC1=O)C3=O)c1nnc(C)n1-2 (some centres undefined)", "SYSTEM NAME": "U2OS", "TEST VALUE": 0}
